Reference source for all entries: the supplement of paper PMC10127200

# Tested on: HEPG2
# experimental.protocol: Euclidean distance of Cell Painting phenotypic profile (signed KS, 77 features) to DMSO centroid (dimensionless distance); 5 or 10 uM (library dependent); higher = stronger phenotypic change vs DMSO (phenoactivity)
# experimental.setup: 48 h
Structures can show the parent of a compound that is named as a salt.
Could you please report measured Euclidean distance for the items listed next?
Give bare numbers.

Guide cases for Euclidean distance, answers given:
- compound: "C[C@@H]1CN(c2c(F)c(N)c3c(=O)c(C(=O)O)cn(C4CC4)c3c2F)C[C@H](C)N1"
  Euclidean distance: 0.632
- compound: "COc1ccc2c(O[C@@H]3C[C@H]4C(=O)N[C@]5(C(=O)NS(=O)(=O)C6CC6)C[C@H]5/C=C\\CCCCN(C)C(=O)[C@@H]4C3)cc(-c3nc(C(C)C)cs3)nc2c1C"
  Euclidean distance: 0.799
- compound: "C=C1C[C@@]2(O)O[C@@]3(C[C@H]2C(C)C)[C@@H](C)CC[C@@H]13"
  Euclidean distance: 0.814

Hi there! I need Euclidean distance for each item below, if you can.
1. O=c1cc(CO)occ1O
2. CN(C)CCOC(c1ccc(Cl)cc1)c1ccccn1 (configuration not stated) [CarbinoxaMine Maleate]
3. CCCCCCCCCCCCCCCCOc1nc2ccc(C)cc2c(=O)o1
4. CNC(=O)c1cccc(-c2ccc3c(N4CCOC[C@@H]4C)nc(N4CCOC[C@@H]4C)nc3n2)c1
5. Fc1ccc(C(c2ccc(F)cc2)N2CCN(C/C=C/c3ccccc3)CC2)cc1 [Flunarizine 2HCl]

Reply:
1. 0.625
2. 0.691
3. 0.864
4. 4.09
5. 2.13

* * *

# System: DU145
# experimental.protocol: Euclidean distance of Cell Painting phenotypic profile (signed KS, 77 features) to DMSO centroid (dimensionless distance); 5 or 10 uM (library dependent); higher = stronger phenotypic change vs DMSO (phenoactivity)
# experimental.setup: 48 h
Counter-ions that a name gives are not always drawn.
Could you please report measured Euclidean distance for the items listed next?
One number for each entry.

Guide cases for Euclidean distance, answers given:
- compound: "CN1C(C(=O)Nc2ccccn2)=C(O)c2sccc2S1(=O)=O"
  Euclidean distance: 1.02
- compound: "Nc1ccn([C@@H]2O[C@H](CO)[C@@H](O)[C@@H]2O)c(=O)n1 [Cytarabine hydrochloride]"
  Euclidean distance: 2.45
- compound: "C=C[C@@H]1C[C@]1(NC(=O)[C@@H]1C[C@@H]2CN1C(=O)[C@H](C(C)(C)C)NC(=O)O[C@@H]1C[C@H]1CCCCCc1nc3ccc(OC)cc3nc1O2)C(=O)NS(=O)(=O)C1CC1"
  Euclidean distance: 1.33
- compound: "C=C1/C(=C\\C=C2/CCC[C@]3(C)[C@@H]([C@H](C)/C=C/[C@@H](O)C4CC4)CC[C@@H]23)C[C@@H](O)C[C@@H]1O"
  Euclidean distance: 0.941
- compound: "NC(=O)/C(=C/n1cnc(-c2cc(C(F)(F)F)cc(C(F)(F)F)c2)n1)c1cncnc1 [Eltanexor (KPT-8602)]"
  Euclidean distance: 2.69

Hi there! I need Euclidean distance for each item below, if you can.
1. COc1cccc(-c2cc(=O)c3ccccc3o2)c1N
2. Cc1cccc(C)c1NC(=O)c1cc(S(N)(=O)=O)c(Cl)cc1O [Xipamide]
3. CCCc1ncc(C[n+]2ccccc2C)c(N)n1 [Amprolium HCl]
4. S=c1nc[nH]c2nc[nH]c12 [6-Mercaptopurine (6-MP) Monohydrate]
5. COCC(=O)Nc1cc(Sc2ccccc2)ccc1N=C(NC(=O)OC)NC(=O)OC
6. NC(=O)Nc1sc(-c2ccc(F)cc2)cc1C(N)=O

Reply:
0.841
0.648
1.08
0.673
0.944
2.12
